We begin with a simple list: items and their reported DC50.
molecular target: SMARCA4-HiBiT (Homo sapiens, UniProt P51532); construct: SMARCA4-HiBiT knock-in Hela monoclonal cell (CS3023226); host or cells: HeLa monoclonal knock-in line (CRISPR HiBiT knock-in at the endogenous locus, heterozygous); experiment: SMARCA4 HiBiT degradation assay in HeLa cells; format: cell-based; settings: 18 hours incubation, read-out: HeLa-HiBit-SM4 DC50
Sequence (P51532 whole entry): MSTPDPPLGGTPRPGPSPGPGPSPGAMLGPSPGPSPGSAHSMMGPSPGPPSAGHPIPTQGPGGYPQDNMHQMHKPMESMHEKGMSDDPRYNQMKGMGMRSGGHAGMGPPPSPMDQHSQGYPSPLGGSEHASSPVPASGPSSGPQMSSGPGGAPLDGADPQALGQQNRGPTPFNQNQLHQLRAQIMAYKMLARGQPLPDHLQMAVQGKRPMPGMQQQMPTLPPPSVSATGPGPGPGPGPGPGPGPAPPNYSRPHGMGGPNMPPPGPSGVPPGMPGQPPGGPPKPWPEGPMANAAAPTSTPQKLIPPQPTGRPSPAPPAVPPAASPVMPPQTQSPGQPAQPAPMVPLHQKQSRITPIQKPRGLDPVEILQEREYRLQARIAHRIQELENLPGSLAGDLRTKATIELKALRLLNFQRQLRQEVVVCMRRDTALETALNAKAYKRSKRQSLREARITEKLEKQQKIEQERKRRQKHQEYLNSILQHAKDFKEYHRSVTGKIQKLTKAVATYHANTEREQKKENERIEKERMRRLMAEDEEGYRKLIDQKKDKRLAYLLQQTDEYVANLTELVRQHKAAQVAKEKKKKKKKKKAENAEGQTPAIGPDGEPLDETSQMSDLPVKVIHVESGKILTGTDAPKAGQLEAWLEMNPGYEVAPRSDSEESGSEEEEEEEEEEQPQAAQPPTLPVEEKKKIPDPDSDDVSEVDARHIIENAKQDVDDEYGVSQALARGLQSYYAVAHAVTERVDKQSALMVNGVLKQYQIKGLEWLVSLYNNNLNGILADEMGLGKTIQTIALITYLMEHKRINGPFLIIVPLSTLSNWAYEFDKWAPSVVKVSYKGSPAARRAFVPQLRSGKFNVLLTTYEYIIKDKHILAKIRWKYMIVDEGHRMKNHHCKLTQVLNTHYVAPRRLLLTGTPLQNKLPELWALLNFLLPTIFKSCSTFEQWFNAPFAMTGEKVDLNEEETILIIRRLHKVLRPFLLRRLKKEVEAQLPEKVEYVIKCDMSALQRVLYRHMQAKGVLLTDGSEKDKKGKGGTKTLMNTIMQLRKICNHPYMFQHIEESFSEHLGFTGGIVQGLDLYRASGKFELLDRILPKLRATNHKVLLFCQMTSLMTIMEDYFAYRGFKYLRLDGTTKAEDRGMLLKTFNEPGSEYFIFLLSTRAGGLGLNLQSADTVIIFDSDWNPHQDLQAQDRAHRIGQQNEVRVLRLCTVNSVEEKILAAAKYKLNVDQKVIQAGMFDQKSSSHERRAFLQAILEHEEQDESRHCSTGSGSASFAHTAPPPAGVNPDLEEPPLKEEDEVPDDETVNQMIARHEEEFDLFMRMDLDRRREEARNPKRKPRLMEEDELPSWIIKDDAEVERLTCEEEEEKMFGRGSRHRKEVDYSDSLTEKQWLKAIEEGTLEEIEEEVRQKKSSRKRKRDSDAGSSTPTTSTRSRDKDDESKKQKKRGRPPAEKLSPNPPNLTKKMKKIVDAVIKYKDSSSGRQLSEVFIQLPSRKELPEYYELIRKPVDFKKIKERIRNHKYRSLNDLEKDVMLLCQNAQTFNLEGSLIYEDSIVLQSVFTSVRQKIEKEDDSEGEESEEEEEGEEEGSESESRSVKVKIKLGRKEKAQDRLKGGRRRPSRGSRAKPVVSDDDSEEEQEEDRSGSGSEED

>  <Compound>
O=C1CCC(N2C(=O)c3ccc(N4CCC(CN5CCC(CN6CCN7c8cc(-c9ccccc9O)nnc8NC[C@H]7C6)C(F)(F)C5)CC4)cc3C2=O)C(=O)N1 (stereo partly shown) [Example 260]

>  <DC50>
0.01 to 0.1 µM

$$$$
>  <Compound>
CN(CCCN1CCN2c3cc(-c4ccccc4O)nnc3NC[C@H]2C1)CC1CCN(c2ccc3c(c2)C(=O)N(C2CCC(=O)NC2=O)C3=O)CC1 (stereo partly shown) [Example 40]

>  <DC50>
< 0.01 µM

$$$$
>  <Compound>
O=C1CCC(N2C(=O)c3ccc(N4CCOC(CN5C[C@@H]6[C@H](C5)[C@H]6CN5CCN6c7cc(-c8ccccc8O)nnc7NC[C@H]6C5)C4)cc3C2=O)C(=O)N1 (stereo partly shown) [Example 49]

>  <DC50>
< 0.01 µM

$$$$
>  <Compound>
O=C1CCC(N2Cc3ccc(C4CCN(CC5CCN(C(=O)N6CCN7c8cc(-c9ccccc9O)nnc8NC[C@H]7C6)CC5)CC4)cc3C2=O)C(=O)N1 (stereo partly shown) [Example 143]

>  <DC50>
0.01 to 0.1 µM

$$$$
>  <Compound>
CN(C(=O)N1CCN2c3cc(-c4ccccc4O)nnc3NC[C@H]2C1)C1CCN(CC2CCN(c3ccc4c(c3)C(=O)N(C3CCC(=O)NC3=O)C4=O)CC2)CC1 (stereo partly shown) [Example 138]

>  <DC50>
< 0.01 µM

$$$$
>  <Compound>
O=C1CCC(N2C(=O)c3ccc(N4CCC(CN[C@H]5C[C@@H](CN6CCN7c8cc(-c9ccccc9O)nnc8NC[C@H]7C6)C5)CC4)cc3C2=O)C(=O)N1 (stereo partly shown) [Example 78]

>  <DC50>
< 0.01 µM

$$$$
>  <Compound>
O=C1CCC(N2C(=O)c3ccc(N4CCN(C(=O)OCCN5CCC(N6CCN7c8cc(-c9ccccc9O)nnc8NC[C@H]7C6)CC5)CC4)cc3C2=O)C(=O)N1 (stereo partly shown) [Example 223]

>  <DC50>
< 0.01 µM

$$$$
>  <Compound>
O=C1CCC(N2C(=O)c3ccc(N4CCC(CN5C[C@@H]6[C@H](C5)[C@H]6CN5CCN6c7cc(-c8ccccc8O)nnc7NC[C@H]6C5)CC4)cc3C2=O)C(=O)N1 (stereo partly shown) [Example 42]

>  <DC50>
< 0.01 µM

$$$$
>  <Compound>
O=C1CCC(N2Cc3ccc(N4CC[C@H](CN5CCC(C(=O)N6CCN7c8cc(-c9ccccc9O)nnc8NC[C@H]7C6)CC5)[C@@H](F)C4)cc3C2=O)C(=O)N1 (stereo partly shown) [Example 261]

>  <DC50>
0.01 to 0.1 µM

$$$$
>  <Compound>
O=C1CCC(N2C(=O)c3ccc(N4CCC(CNC56CCC(C(=O)N7CCN8c9cc(-c%10ccccc%10O)nnc9NC[C@H]8C7)(CC5)CC6)CC4)cc3C2=O)C(=O)N1 (stereo partly shown) [Example 81]

>  <DC50>
< 0.01 µM

$$$$
>  <Compound>
O=C1CCC(N2C(=O)c3ccc(N4CC[C@@H](CN5C[C@@H]6[C@H](C5)[C@H]6CN5CCN6c7cc(-c8ccccc8O)nnc7NC[C@H]6C5)[C@H](F)C4)cc3C2=O)C(=O)N1 (stereo partly shown) [Example 200]

>  <DC50>
< 0.01 µM

$$$$
>  <Compound>
O=C1CCC(N2C(=O)c3ccc(Nc4cnn(CCN5CCC(N6CCN7c8cc(-c9ccccc9O)nnc8NC[C@H]7C6)CC5)c4)cc3C2=O)C(=O)N1 (stereo partly shown) [Example 245]

>  <DC50>
0.01 to 0.1 µM

$$$$
>  <Compound>
CCC1CN(CC2CCN(c3ccc4c(c3)C(=O)N(C3CCC(=O)NC3=O)C4)CC2)CCN1C(=O)N1CCN2c3cc(-c4ccccc4O)nnc3NC[C@H]2C1 (stereo partly shown) [Example 270]

>  <DC50>
< 0.01 µM

$$$$
>  <Compound>
O=C1CCC(N2Cc3ccc(N4CCC(CN5C6CCC5CN(C(=O)N5CCN7c8cc(-c9ccccc9O)nnc8NC[C@H]7C5)C6)CC4)cc3C2=O)C(=O)N1 (stereo partly shown) [Example 103]

>  <DC50>
0.01 to 0.1 µM

$$$$
>  <Compound>
CC1CC(CN2CCN3c4cc(-c5ccccc5O)nnc4NC[C@H]3C2)CCN1CC1CCN(c2cc3c(cc2F)C(=O)N(C2CCC(=O)NC2=O)C3=O)CC1 (stereo partly shown) [Example 166]

>  <DC50>
< 0.01 µM

$$$$
>  <Compound>
O=C1CCC(N2C(=O)c3ccc(N4CCC(CN5CCC(CN6CCN7c8cc(-c9ccccc9O)nnc8NC[C@H]7C6)CC5CO)CC4)cc3C2=O)C(=O)N1 (stereo partly shown) [Example 236]

>  <DC50>
< 0.01 µM

$$$$
>  <Compound>
CN(CCN1CCC(N2CCN3c4cc(-c5ccccc5O)nnc4NC[C@H]3C2)CC1)c1cccc2c1C(=O)N(C1CCC(=O)NC1=O)C2=O (stereo partly shown) [Example 68]

>  <DC50>
0.01 to 0.1 µM

$$$$
>  <Compound>
O=C1CCC(N2C(=O)c3ccc(N4CCC(CN5CCC(CN6CCN7c8cc(-c9ccccc9O)nnc8NC[C@H]7C6)CC5)C4)cc3C2=O)C(=O)N1 (stereo partly shown) [Example 225]

>  <DC50>
< 0.01 µM

$$$$
>  <Compound>
O=C1CCC(N2C(=O)c3ccc(N4CCN(CC5CCC(CN6CCN7c8cc(-c9ccccc9O)nnc8NC[C@H]7C6)CC5)CC4)cc3C2=O)C(=O)N1 (stereo partly shown) [Example 168]

>  <DC50>
< 0.01 µM

$$$$
>  <Compound>
O=C1CCC(N2Cc3ccc(N4CCC(CN5CCC(CN6CCN7c8cc(-c9ccccc9O)nnc8NC[C@H]7C6)CC5CO)CC4)cc3C2=O)C(=O)N1 (stereo partly shown) [Example 235]

>  <DC50>
< 0.01 µM

$$$$
>  <Compound>
O=C1CCC(N2Cc3ccc(N4CCC(CN5CCN(C(=O)N6CCN7c8cc(-c9ccccc9O)nnc8NC[C@H]7C6)CC5)CC4)cc3C2=O)C(=O)N1 (stereo partly shown) [Example 95]

>  <DC50>
< 0.01 µM

$$$$
>  <Compound>
CN(CCN1CCC(C(=O)N2CCN3c4cc(-c5ccccc5O)nnc4NC[C@H]3C2)CC1)c1ccc2c(c1)C(=O)N(C1CCC(=O)NC1=O)C2=O (stereo partly shown) [Example 222]

>  <DC50>
0.1 to 1 µM

$$$$
